Just for reference, ChEMBL document CHEMBL1145385 is where these values come from.

- Experimental target: Protein deacetylase HDAC6 (Homo sapiens, UniProt Q9UBN7)
- Sequence (Q9UBN7 whole entry): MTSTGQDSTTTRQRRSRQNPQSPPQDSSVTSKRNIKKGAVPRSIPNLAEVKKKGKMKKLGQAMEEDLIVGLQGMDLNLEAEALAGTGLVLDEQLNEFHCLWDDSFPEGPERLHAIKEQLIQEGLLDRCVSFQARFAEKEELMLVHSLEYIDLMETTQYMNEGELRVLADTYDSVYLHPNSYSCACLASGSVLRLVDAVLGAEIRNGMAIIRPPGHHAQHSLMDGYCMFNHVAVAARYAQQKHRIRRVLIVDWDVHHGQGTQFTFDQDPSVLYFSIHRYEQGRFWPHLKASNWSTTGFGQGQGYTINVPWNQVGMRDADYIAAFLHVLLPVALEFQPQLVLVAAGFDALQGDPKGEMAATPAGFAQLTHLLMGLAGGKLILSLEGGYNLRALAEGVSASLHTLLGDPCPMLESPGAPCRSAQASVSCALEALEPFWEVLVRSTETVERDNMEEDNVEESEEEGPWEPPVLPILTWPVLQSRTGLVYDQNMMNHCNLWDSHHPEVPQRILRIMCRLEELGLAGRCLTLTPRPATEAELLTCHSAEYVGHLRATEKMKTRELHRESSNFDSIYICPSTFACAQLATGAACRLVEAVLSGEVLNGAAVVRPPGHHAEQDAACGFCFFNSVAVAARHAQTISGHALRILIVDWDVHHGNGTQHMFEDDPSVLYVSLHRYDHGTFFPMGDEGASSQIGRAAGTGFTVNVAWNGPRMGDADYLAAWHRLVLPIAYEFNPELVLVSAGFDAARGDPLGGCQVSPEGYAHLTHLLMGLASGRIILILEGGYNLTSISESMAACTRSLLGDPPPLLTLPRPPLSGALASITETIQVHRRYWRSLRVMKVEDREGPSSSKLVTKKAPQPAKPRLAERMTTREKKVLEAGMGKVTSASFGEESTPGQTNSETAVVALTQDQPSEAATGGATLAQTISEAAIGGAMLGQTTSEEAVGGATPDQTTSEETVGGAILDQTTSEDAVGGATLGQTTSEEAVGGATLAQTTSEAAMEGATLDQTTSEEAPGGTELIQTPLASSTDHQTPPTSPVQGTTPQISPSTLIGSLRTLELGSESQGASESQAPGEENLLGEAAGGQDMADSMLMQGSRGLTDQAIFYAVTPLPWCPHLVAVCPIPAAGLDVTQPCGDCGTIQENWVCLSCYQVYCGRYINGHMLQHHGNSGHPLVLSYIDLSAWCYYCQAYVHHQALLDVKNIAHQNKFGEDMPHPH
# log10 of IC50 values compiled below
Measured parameter: log10 of IC50 (log10 of the value in nM)

> print(dat)
                    structure.smiles.string  reported.measurement
1  N[C@@H](Cc1c[nH]c2ccccc12)C(=O)Nc1ccccc1-c1ccc(NC(=O)CCCCCCC(=O)NO)cc1                  0.73
2       CN(C)c1ccc(C(=O)NCCCCCCNC(=O)CS)cc1                  2.68
3          CN(C)c1ccc(C(=O)NCCCNC(=O)CS)cc1                  2.33
4         O=C(CS)NCCCCCC(=O)Nc1cccc2cccnc12                  1.98
5  N[C@@H](Cc1ccc(O)cc1)C(=O)Nc1ccccc1-c1ccc(NC(=O)CCCCCCC(=O)NO)cc1                  0.95
6         CN(C)c1ccc(C(=O)NCCCCNC(=O)CS)cc1                  2.79
7        CN(C)c1ccc(C(=O)NCCCCCNC(=O)CS)cc1                  2.06

====

- Experimental target: Histone deacetylase 2 (Homo sapiens, UniProt Q92769)
- Sequence (Q92769 whole entry): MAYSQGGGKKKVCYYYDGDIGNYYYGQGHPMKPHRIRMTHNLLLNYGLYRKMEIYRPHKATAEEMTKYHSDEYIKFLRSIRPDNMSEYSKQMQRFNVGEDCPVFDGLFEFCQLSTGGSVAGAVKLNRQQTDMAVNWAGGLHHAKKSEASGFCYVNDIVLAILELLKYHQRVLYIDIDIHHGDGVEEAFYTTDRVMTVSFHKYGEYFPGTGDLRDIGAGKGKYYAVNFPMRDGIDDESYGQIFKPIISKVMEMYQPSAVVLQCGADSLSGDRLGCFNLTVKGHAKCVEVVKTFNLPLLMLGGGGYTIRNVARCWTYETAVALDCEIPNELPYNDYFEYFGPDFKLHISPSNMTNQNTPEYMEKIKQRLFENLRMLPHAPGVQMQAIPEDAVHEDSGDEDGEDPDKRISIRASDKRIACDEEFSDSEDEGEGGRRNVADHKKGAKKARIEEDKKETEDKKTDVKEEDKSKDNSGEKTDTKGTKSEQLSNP
- Assay: Inhibition of His-tagged HDAC2 expressed in Sf9 cells by fluorescence-based assay
pIC50: −log10 of the molar value.
Measured parameter: pIC50

> print(dat)
                    structure.smiles.string                       experimental.target  measured.parameter  value.relation.sign  reported.measurement
1         O=C(CS)NCCCCCC(=O)Nc1cccc2cccnc12  Histone deacetylase 2 (Homo sapiens, UniProt Q92769)               pIC50                    =                  5.13
2          CN(C)c1ccc(C(=O)NCCCNC(=O)CS)cc1  Histone deacetylase 2 (Homo sapiens, UniProt Q92769)               pIC50                    <                  4.52
3   O=C(CCCCCNC(=O)NC12CC3CC(CC(C3)C1)C2)NO  Histone deacetylase 2 (Homo sapiens, UniProt Q92769)               pIC50                    =                  5.98
4  N[C@@H](Cc1c[nH]c2ccccc12)C(=O)Nc1ccccc1-c1ccc(NC(=O)CCCCCCC(=O)NO)cc1  Histone deacetylase 2 (Homo sapiens, UniProt Q92769)               pIC50                    =                  6.78
5       CN(C)c1ccc(C(=O)NCCCCCCNC(=O)CS)cc1  Histone deacetylase 2 (Homo sapiens, UniProt Q92769)               pIC50                    =                  5.33
